measurement.notes: chemical genetic growth profiling, strain panel (AID 1159580);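 further: tested at 20 µM; growth read once vehicle control cultures reached saturation at 30 °C; 1 = growth at the plate median or of vehicle wells; lower values mean less growth of the strain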
study.conditions: S. cerevisiae deletion strains, growth OD, locus YJL095W, strain BCK1
Among all 5,500 compounds or so, about 2,000 (36%) were called active. Roughly 18% stayed inconclusive and do not appear here. No stated cut-off is given here; in the data, active means normalized growth mostly below about 0.91 (no sharp cut-off); inconclusive means no clear call, values can overlap the other calls; inactive means mostly above about 0.92. The list shows a part of the results.
Labels: True (active), False (inactive)

| compound | group.label |
| --- | --- |
| CC(=O)O[C@@](C)(CCC=C(C)C)C1CC=C(C)CC1 (some centres not stated) | False |
| O=C1CCO1 | False |
| CC(=C(CCOP(=O)(O)O)SC(=O)c1ccccc1)N(C=O)Cc1cnc(C)nc1N | False |
| CCc1cccc(C)c1N(C(=O)CCl)C(C)COC (configuration not stated) | False |
| CC(C)N(C(=O)CCl)c1ccccc1 | False |
| CN1C2CC3C[C@H]1C(O3)C2O (some centres not stated) | False |
| CC1(O)/C=C/C=C(\CO)C2CC(C)(C)C2(O)CC1 (configuration not stated) | False |
| C[N+](C)(CCOc1ccccc1)Cc1ccccc1 | True |
| C=CC(C)(C)c1c2c(c(O)c3c(=O)c4ccc(O)c(O)c4oc13)C=CC(C)(C)O2 | True |
| CC(C)(N=NC(C)(C)C(=N)N)C(=N)N | False |
| COC(=O)c1c(Cl)c(Cl)c(C(=O)OC)c(Cl)c1Cl | False |
| Nc1nc2[nH]c(=O)c(=O)[nH]c2c(=O)[nH]1 | False |
| CC1(C)C2CCC1(C)C(O)C2 (configuration not stated) | False |
| COc1ccc2c(c1)[C@@]1(C)CCC(=O)C[C@H]1CC2 | False |
| COc1ccc2cc1Oc1ccc(cc1)C[C@H]1c3c(cc4c(c3Oc3cc5c(cc3OC)CCN(C)[C@@H]5C2)OCO4)CCN1C | False |
| COc1cccc2c1CCC1CC(=O)CCC21C (configuration not stated) | False |
| O=C(/C=C/c1ccccc1)O[C@H]1C[C@@H](O)[C@]2(O)C=CO[C@@H](O[C@@H]3O[C@H](CO)[C@@H](O)[C@H](O)[C@H]3O)[C@H]12 | False |

###

Entries annotated with measured normalized growth
measurement.notes: chemical genetic growth profiling, strain panel (AID 1159580);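 further: tested at 20 µM; growth read once vehicle control cultures reached saturation at 30 °C; 1 = growth at the plate median or of vehicle wells; lower values mean less growth of the strain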
study.conditions: S. cerevisiae deletion strains, growth OD, locus YAL030W, strain snc1, hits give low values
The campaign covered roughly 5,500 compounds. About 2,000 (36%) were called active. Not shown: some 18% with an inconclusive outcome. Some of the results follow.
metric.name: normalized growth

| compound | data.value |
| --- | --- |
| CC1(C)S[C@@H]2[C@H](NC(=O)[C@H](NC(=O)N3CCNC3=O)c3ccccc3)C(=O)N2C1C(=O)O (stereo partly specified) | 0.969 |
| CC[C@H]1OC(=O)C[C@@H](O)[C@H](C)[C@@H](O[C@@H]2O[C@H](C)[C@@H](O[C@H]3C[C@@](C)(O)[C@@H](O)[C@H](C)O3)[C@H](N(C)C)[C@H]2O)[C@@H](CC=O)C[C@@H](C)C(=O)/C=C/C(C)=C/[C@@H]1CO[C@@H]1O[C@H](C)[C@@H](O)[C@@H](OC)[C@H]1OC | 0.997 |
| COc1c(O)cc2oc3cc(O)c(CC=C(C)C)c(O)c3c(=O)c2c1CC=C(C)C | 0.984 |
| S=C=NCc1ccccc1 | 0.0648 |
| CCCCOc1ccc(OCCCN2CCOCC2)cc1 | 0.988 |
| Cc1cc(OC(=O)N2CCCCC2)c(C(C)C)cc1[N+](C)(C)C | 1.01 |
| NC(N)=Nc1nc(CSCCC(N)=NS(N)(=O)=O)cs1 | 0.982 |
| CC(C)(N=NC(C)(C)C(=N)N)C(=N)N | 1.02 |
| CC(C)[N+](C)(CCOC(=O)C1c2ccccc2Oc2ccccc21)C(C)C | 1.02 |
| CCOC(=O)c1ncn2c1CN(C)C(=O)c1cc(F)ccc1-2 | 1.02 |
| CCC1(c2ccc(N)cc2)CCC(=O)NC1=O (stereo unspecified) | 0.969 |
| CCC1(C)CC(=O)NC1=O (stereo unspecified) | 0.954 |
| CO[C@H]1C[C@H](O[C@H]2[C@H](C)[C@@H](OC3O[C@H](C)C[C@H](N(C)C)[C@H]3O)[C@@H](C)C[C@]3(CO3)C(=O)[C@H](C)[C@@H](O)[C@@H](C)[C@@H](C)OC(=O)[C@@H]2C)O[C@@H](C)[C@@H]1O (stereo partly specified) | 1.01 |
| CCC(C(=O)O)c1ccccc1 (stereo unspecified) | 0.989 |
| OC(CCN1CCCCC1)(c1ccccc1)c1ccccc1 | 0.99 |
| CCc1ccc(CCOc2ccc(CC3SC(=O)NC3=O)cc2)nc1 (stereo unspecified) | 0.999 |
| C/C=C(/C(=C/C)c1ccc(O)cc1)c1ccc(O)cc1 | 0.978 |
| CN=C(NC#N)NCCSCc1nc(N=C(N)N)cs1 | 0.998 |
| O=C(/C=C/C=C/c1ccc2c(c1)OCO2)N1CCCCC1 | 0.959 |
| CCCCOc1ccc(CC(=O)NO)cc1 | 1 |
| COc1ccc(-c2coc3c(OC)c(OC)cc(O)c3c2=O)cc1 | 0.997 |
